Values were extracted from ChEMBL document CHEMBL1142252.

- assay_notes: Half life in mouse at 3 mg/kg, iv
- Format: ADME, organism-based
- Design: dose 3 mg/kg, route intravenous
- assay_context: in vivo
reported_endpoint: half-life (min)
One number for each entry, in min.

Cc1ccc(F)c(NC(=O)Nc2ccc(-c3ccnc4[nH]nc(N)c34)cc2)c1	60
Cc1cc(C)cc(NC(=O)Nc2ccc(-c3nccc4[nH]nc(N)c34)cc2)c1	27
Cc1ccc(F)c(NC(=O)Nc2ccc(-c3cncc4c3c(N)nn4C)cc2)c1	90

Okay, next one:
Reported half-life ( "Cc1cccc(NC(=O)Nc2ccc(-c3cncc4c3c(N)nn4C)cc2)c1" ) = 36
